These entries and their values trace back to patent US20100311741A1.

Measured inhibition at 2 µM of individual entries
# Measured target: Human recombinant TACE enzyme (Homo sapiens, UniProt P78536)
# Construct: purchased R and D Systems, Abingdon, UK 930-ADB
# Sequence (P78536 215-671 limits assumed): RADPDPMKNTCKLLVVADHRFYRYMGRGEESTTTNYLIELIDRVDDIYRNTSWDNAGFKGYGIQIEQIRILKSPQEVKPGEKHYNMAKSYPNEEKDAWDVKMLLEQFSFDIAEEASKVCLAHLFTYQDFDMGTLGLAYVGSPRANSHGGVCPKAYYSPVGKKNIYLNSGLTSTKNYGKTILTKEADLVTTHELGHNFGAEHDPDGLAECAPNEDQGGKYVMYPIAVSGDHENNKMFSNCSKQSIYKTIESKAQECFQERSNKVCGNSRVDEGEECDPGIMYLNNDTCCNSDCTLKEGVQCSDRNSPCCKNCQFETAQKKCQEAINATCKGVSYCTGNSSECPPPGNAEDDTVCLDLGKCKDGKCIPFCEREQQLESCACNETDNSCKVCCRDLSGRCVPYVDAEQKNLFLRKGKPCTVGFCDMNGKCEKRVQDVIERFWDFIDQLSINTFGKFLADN
# Test summary: TACE assay (fluorescent peptide substrate)
# Format: biochemical
# Setup conditions: 3.5 h; single concentration @2 (μM); read-out: Av. TACE Inhibition, % @2

# Compound, inhibition at 2 µM, %
rows = [
    ("COc1ccc2c(c1Cl)C(CC(=O)NO)N(c1ccccc1)S2(=O)=O (stereo not drawn) [IX-093]", 29),
    ("O=C(CC1c2ccc(C(F)(F)F)cc2S(=O)(=O)N1c1ccccc1)NO (stereo not drawn) [IX-090]", 10),
    ("COc1cccc2c1C(CC(=O)NO)N(c1ccccc1)S2(=O)=O (stereo not drawn) [IX-082]", 35),
    ("Cc1ccc2c(c1)S(=O)(=O)N(c1ccccc1)C2CC(=O)NO (stereo not drawn) [IX-073]", 32),
    ("O=C(CC1c2cccc(C(F)(F)F)c2S(=O)(=O)N1c1ccccc1)NO (stereo not drawn) [IX-084]", 0),
    ("O=C(CC1c2c(ccc(F)c2Cl)S(=O)(=O)N1c1ccccc1)NO (stereo not drawn) [IX-086]", 20),
]

###

# Measured target: Human recombinant TACE enzyme (Homo sapiens)
# Construct: purchased R and D Systems, Abingdon, UK 930-ADB
# Test summary: TACE assay (fluorescent peptide substrate)
# Type: biochemical
# Setup conditions: 3.5 h; single concentration @2 (μM); read-out: Av. TACE Inhibition, % @2
Measured inhibition at 2 µM of individual entries

# Compound, inhibition at 2 µM / %
data = [
    ("O=C(CC1c2ccc(-c3ccccc3)cc2S(=O)(=O)N1c1ccccc1)NO (centres unmarked)", 4),
    ("COc1cc(OC)c2c(c1)C(CC(=O)NO)N(c1ccccc1)S2(=O)=O (centres unmarked)", 15),
    ("O=C(CC1c2ccc(Br)cc2S(=O)(=O)N1c1ccccc1)NO (centres unmarked)", 10),
    ("O=C(CC1c2ccccc2S(=O)(=O)N1C1CCN(Cc2ccccc2)CC1)NO (centres unmarked)", 0),
    ("COc1cc(Cl)cc2c1S(=O)(=O)N(c1ccccc1)C2CC(=O)NO (centres unmarked)", 23),
]

###

# Compound, melting point
measured = [
    ("O=C(CC1c2ccccc2S(=O)(=O)N1c1ccc(-n2cncn2)cc1)NO (stereo not drawn) [Compound (5.28)]", "205 to 207 °C (dec.)"),
    ("O=C(CC1c2ccccc2S(=O)(=O)N1c1ccc(Oc2ccccc2)cc1)NO (stereo not drawn) [Compound (5.24)]", "174 to 175 °C"),
    ("CCCCOc1ccc(N2C(CC(=O)NO)c3ccccc3S2(=O)=O)cc1 (stereo not drawn) [Compound (5.34)]", "165 to 166 °C"),
    ("O=C(CC1c2ccccc2S(=O)(=O)N1c1cccc(Oc2ccccc2)c1)NO (stereo not drawn) [Compound (5.9)]", "181 to 182 °C"),
    ("O=C(CC1c2ccccc2S(=O)(=O)N1C1CCN(Cc2ccccc2)CC1)NO (stereo not drawn) [Compound (5.42)]", "141 to 143 °C"),
    ("O=C(CC1c2ccc(Br)cc2S(=O)(=O)N1c1ccccc1)NO (stereo not drawn) [Compound (5.68)]", "182 to 183 °C"),
]
